The entries below are paired with their reported inhibition.
# ASSAY COMMENT: H1N1 influenza NS1A inhibitors, functional cell based assay (AID 504329)
# MEASUREMENT CONTEXT: percent inhibition, at 12.5 µM, stronger effect = higher value
Screen size: about 340,000 compounds; about 1,000 (0.29%) were called active. The list is a sample of the results. Results with a measured potency or affinity are listed apart.
# value in %; strip the unit string

COMPOUND	RESULT
COc1ccc(OCc2nnc(SCC(N)=O)n2-c2ccccc2OC)cc1	-0.95
CN1CCN(C(c2ccc(Cl)cc2)c2cc(Cl)c3cccnc3c2O)CC1 (stereo not drawn)	2.9

For the next question, use this compound.
Looking for the measured inhibition of CCOCCCNC(=O)C1c2ccccc2C(=O)N2CCc3ccccc3C12 (stereo not drawn) , can you help?
24.7
